Reported folding stability dG values are given for each entry in this list.
B1: r11_951_TrROS_Hall (parent)
chain: KKKYVIKVYFEDTGKEVEIEAESKEEALEAAKRLAEELGLKIKKVEIYP

Variants of: B1
assay name: folding stability dG (cDNA display proteolysis); higher = more stable
conditions used: PBS, room temperature
State the answer as a number, implicitly in kcal/mol.

K32S	4.42
E26A	4.66
K15Y	4.52
P49C	4.52
L38H	4.13
K44L	4.14
G39M	4.38
E22H	4.49
Y9I	4.35
Y48H	4.44

Query folding stability dG for `K24L`
4.48

Query folding stability dG for `E36K`
4.54

Query folding stability dG for `L38K`
4.2

Query folding stability dG for `E11D`
4.5

Query folding stability dG for `K7W`
4.45

Query folding stability dG for `E36G`
4.6

Query folding stability dG for `E37F`
4.73

Query folding stability dG for `I19N`
2.66

Query folding stability dG for `K44I`
4.21

Origin of values: the MegaScale stability set (Tsuboyama et al. 2023)
